// normalized RNA/DNA level with ligand (log10) lookup, one value per entry
B1: library; a variant is named by its letters at N, in order (parent)
chain: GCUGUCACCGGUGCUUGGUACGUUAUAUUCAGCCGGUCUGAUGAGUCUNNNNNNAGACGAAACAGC

Variants of: B1
Protocol Text: normalized RNA/DNA level with ligand (relative to sTRSVctl = 100) (log10 (% of sTRSVctl)); HEK293T overexpressing SLC46A1; ligand concentration (+) RNA-Seq: 6 mM; higher = less ribozyme self-cleavage, higher mRNA level
Condition Details: with (6R,S)-folinic acid; ligand present: yes
Please give only the number in your answer, with no unit.

Use these answered entries as a reference point.
# lookup: normalized RNA/DNA level with ligand (log10) of `UCUCAG`
1.98

Entry `GUCUGC` please
2.07

Further cases:
# lookup: normalized RNA/DNA level with ligand (log10) of `UAUACA`
2.01

Entry `CCGGUC` please
2.03
